System: Raf-1
Assay: Immunoblotting for receptor presence in MCF-7 cells exposed to compound
Assay type: cell-based
Set-up: key: +: the receptor was detected by immunoblotting; −: it was not detectable; ±: a weak or equivocal result
Details: MCF-7 cells, 1 μM, exposure time 24 hours, Table 1

{"Compound": "COC1C=CC=C(C)C(=O)NC2=CC(=O)C(NCCCCCCN(C)CCCCCCC3(O)CCC4C5CCc6cc(O)ccc6C5CCC43C)=C(CC(C)CC(OC)C(O)C(C)C=C(C)C1OC(N)=O)C2=O (stereo not shown) [GM-13-E2]", "Raf-1 detected by immunoblotting": "+"}
{"Compound": "COC1=C2C[C@@H](C)C[C@H](OC)[C@H](O)[C@@H](C)/C=C(\\C)[C@H](OC(N)=O)[C@@H](OC)/C=C\\C=C(/C)C(=O)NC(=CC1=O)C2=O [GM, geldanamycin, reference compound]", "Raf-1 detected by immunoblotting": "−"}
{"Compound": "COC1C=CC=C(C)C(=O)NC2=CC(=O)C(NCC=CCC3CC4C5CCc6cc(O)ccc6C5CCC4(C)C3O)=C(CC(C)CC(OC)C(O)C(C)C=C(C)C1OC(N)=O)C2=O (stereo not shown) [GM-4-E2]", "Raf-1 detected by immunoblotting": "+"}
{"Compound": "COC1C=CC=C(C)C(=O)NC2=CC(=O)C(NCCCCNCCCCCCC3(O)CCC4C5CCc6cc(O)ccc6C5CCC43C)=C(CC(C)CC(OC)C(O)C(C)C=C(C)C1OC(N)=O)C2=O (stereo not shown) [GM-10-E2]", "Raf-1 detected by immunoblotting": "+"}

###

Test system: ErbB2
Assay: Immunoblotting for receptor presence in MCF-7 cells exposed to compound
Assay type: cell-based
Parameters: key: +: the receptor was detected by immunoblotting; −: it was not detectable; ±: a weak or equivocal result
Details: MCF-7 cells, 1 μM, exposure time 24 hours, Table 1

{"Molecule": "COC1C=CC=C(C)C(=O)NC2=CC(=O)C(NCCCCNCCCCCCC3(O)CCC4C5CCc6cc(O)ccc6C5CCC43C)=C(CC(C)CC(OC)C(O)C(C)C=C(C)C1OC(N)=O)C2=O (stereo not shown) [GM-10-E2]", "ErbB2 detected by immunoblotting": "−"}
{"Molecule": "COC1=C2C[C@@H](C)C[C@H](OC)[C@H](O)[C@@H](C)/C=C(\\C)[C@H](OC(N)=O)[C@@H](OC)/C=C\\C=C(/C)C(=O)NC(=CC1=O)C2=O [GM, geldanamycin, reference compound]", "ErbB2 detected by immunoblotting": "−"}
{"Molecule": "COC1C=CC=C(C)C(=O)NC2=CC(=O)C(NCC=CCC3CC4C5CCc6cc(O)ccc6C5CCC4(C)C3O)=C(CC(C)CC(OC)C(O)C(C)C=C(C)C1OC(N)=O)C2=O (stereo not shown) [GM-4-E2]", "ErbB2 detected by immunoblotting": "−"}
{"Molecule": "COC1C=CC=C(C)C(=O)NC2=CC(=O)C(NCCCCCCN(C)CCCCCCC3(O)CCC4C5CCc6cc(O)ccc6C5CCC43C)=C(CC(C)CC(OC)C(O)C(C)C=C(C)C1OC(N)=O)C2=O (stereo not shown) [GM-13-E2]", "ErbB2 detected by immunoblotting": "−"}

Values compiled from patent US6670348B1.
